target: UniProt Q9BYT8; test: Activation of Nln (unknown origin) using Mca-Pro-Leu-Gly-Pro-D-Lys(DNP)- OH as substrate preincubated for 10 mins followed by substrate addition measured for 20 mins by fluorescence based assay; settings: read-out: EC50
Peptide text beside a SMILES is read from it.
Listed compounds paired with reported pEC50
Reminder that pEC50 is minus the log10 of a molar concentration.

For orientation, consider the following solved cases.
- compound: "N[C@H](Cc1c[nH]cn1)C(=O)N1CCC(Cc2ccccc2F)CC1"
  pEC50: 5.27
- compound: "N[C@@H](Cc1c[nH]cn1)c1ncc(-c2cccc3ccccc23)[nH]1"
  pEC50: 5.39
- compound: "N[C@@H](Cc1c[nH]cn1)C(=O)N[C@@H](Cc1ccccc1)C(=O)O (H-His-Phe-OH)"
  pEC50: 4.07
- compound: "N[C@H](Cc1c[nH]cn1)c1ncc(-c2ccc3ccccc3c2)[nH]1"
  pEC50: 5.17
- compound: "N[C@@H](Cc1c[nH]cn1)C(=O)NCCc1ccc(Cl)cc1"
  pEC50: 4.60
- compound: "N[C@@H](Cc1c[nH]cn1)c1ncc(-c2ccc3ccccc3c2)[nH]1"
  pEC50: 5.26
- compound: "N[C@@H](Cc1c[nH]cn1)C(=O)Nc1ccccc1"
  pEC50: 3.60
- compound: "N[C@@H](Cc1c[nH]cn1)C(=O)N1CCc2ccccc2C1"
  pEC50: 4.49
- compound: "N[C@@H](Cc1c[nH]cn1)C(=O)N1CCC(Cc2ccccc2F)CC1"
  pEC50: 5.37
- compound: "N[C@H](Cc1c[nH]cn1)c1ncc(-c2ccc(Cl)cc2)[nH]1"
  pEC50: 5.70

Entry N[C@@H](Cc1c[nH]cn1)C(=O)NCC(=O)c1ccc(Cl)cc1 , pEC50 reported as 4.47

* * *

assay: Half life in mouse brain at 500 ng/ml measured for 4 hrs by LC-MS/MS analysis; assay type: ADME, tissue-based
metric name: half-life at 500 ng/ml (h)
The response must be a number in h with no trailing unit.

Value of half-life at 500 ng/ml reported for the molecule N[C@H](Cc1c[nH]cn1)c1ncc(-c2ccc(Cl)cc2)[nH]1 is 1.81

N[C@@H](Cc1c[nH]cn1)c1ncc(-c2cccc3ccccc23)[nH]1 yielded half-life at 500 ng/ml of 1.77

The molecule listed as N[C@@H](Cc1c[nH]cn1)C(=O)NCc1cccc2ccccc12 shows half-life at 500 ng/ml equal to 1.34

* * *

experiment: Half life in mouse plasma at 500 ng/ml measured for 4 hrs by LC-MS/MS analysis; assay type: ADME, cell-free
Peptide text beside a SMILES is read from it.
Readings of half-life at 500 ng/ml for the listed compounds

- compound: "N[C@@H](Cc1c[nH]cn1)c1ncc(-c2cccc3ccccc23)[nH]1"
  metric name: "half-life at 500 ng/ml"
  measured value: "> 16.7 h"
- compound: "N[C@@H](Cc1c[nH]cn1)C(=O)N[C@@H](Cc1ccccc1)C(=O)O (H-His-Phe-OH)"
  metric name: "half-life at 500 ng/ml"
  measured value: "0.57 h"
- compound: "N[C@@H](Cc1c[nH]cn1)C(=O)NCc1cccc2ccccc12"
  metric name: "half-life at 500 ng/ml"
  measured value: "> 16.7 h"

For reference, reported half-life at 500 ng/ml for N[C@H](Cc1c[nH]cn1)c1ncc(-c2ccc(Cl)cc2)[nH]1 stands at 8.15 h

* * *

List of EC50 values.
molecular target: Neurolysin, mitochondrial (Homo sapiens, UniProt Q9BYT8); assay: Activation of Nln (unknown origin) using Mca-Pro-Leu-Gly-Pro-D-Lys(DNP)- OH as substrate preincubated for 10 mins followed by substrate addition measured for 20 mins by fluorescence based assay; settings: read-out: EC50
Sequence (Q9BYT8 whole entry): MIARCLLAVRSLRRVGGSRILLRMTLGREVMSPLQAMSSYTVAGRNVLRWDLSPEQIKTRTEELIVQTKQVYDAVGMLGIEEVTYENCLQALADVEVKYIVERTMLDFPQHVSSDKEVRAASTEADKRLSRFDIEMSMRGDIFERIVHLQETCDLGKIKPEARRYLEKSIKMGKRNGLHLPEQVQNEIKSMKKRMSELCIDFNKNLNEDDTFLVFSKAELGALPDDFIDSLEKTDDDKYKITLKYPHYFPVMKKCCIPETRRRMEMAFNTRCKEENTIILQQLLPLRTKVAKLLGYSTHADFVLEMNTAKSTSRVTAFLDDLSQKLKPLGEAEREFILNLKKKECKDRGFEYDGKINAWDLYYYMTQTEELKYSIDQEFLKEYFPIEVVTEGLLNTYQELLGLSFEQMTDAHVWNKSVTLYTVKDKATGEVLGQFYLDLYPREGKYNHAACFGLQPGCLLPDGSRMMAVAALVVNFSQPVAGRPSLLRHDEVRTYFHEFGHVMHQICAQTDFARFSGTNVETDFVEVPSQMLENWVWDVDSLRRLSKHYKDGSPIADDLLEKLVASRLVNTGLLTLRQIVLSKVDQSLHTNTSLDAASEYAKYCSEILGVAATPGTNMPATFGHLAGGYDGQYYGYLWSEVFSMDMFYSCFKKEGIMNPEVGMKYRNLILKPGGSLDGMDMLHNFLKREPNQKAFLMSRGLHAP
State the answer as a number, implicitly in µM.

The following compounds have reported results that may help.
- compound: "CN(Cc1cccc2ccccc12)C(=O)[C@@H](N)Cc1c[nH]cn1"
  metric name: "EC50"
  unit text: "µM"
  measured value: 3.8
- compound: "N[C@@H](Cc1c[nH]cn1)C(=O)NCCc1ccc(F)cc1"
  metric name: "EC50"
  unit text: "µM"
  measured value: 11.6

The reported value for N[C@@H](Cc1c[nH]cn1)c1ncc(-c2ccc(Cl)cc2)[nH]1 in terms of EC50 is 2.9

Noted for N[C@@H](Cc1c[nH]cn1)C(=O)NCc1ccc2ccccc2c1 : its EC50 reads 4.4

* * *

target: Neurolysin, mitochondrial (Homo sapiens, UniProt Q9BYT8); experiment: Activation of Nln (unknown origin) using Mca-Pro-Leu-Gly-Pro-D-Lys(DNP)- OH as substrate preincubated for 10 mins followed by substrate addition measured for 20 mins by fluorescence based assay; conditions: read-out: EC50
Peptide text beside a SMILES is read from it. * marks the point of attachment. NHPhenethyl = c1ccc(CCN*)cc1
Collected EC50 values appear next to each entry.
Kindly answer with a numeric value in µM, unit omitted.

// worked examples, EC50 included
- compound: "CN(Cc1cccc2ccccc12)C(=O)[C@H](N)Cc1c[nH]cn1"
  EC50 / µM: 3.6
- compound: "N[C@@H](Cc1c[nH]cn1)C(=S)NCc1cccc2ccccc12"
  EC50 / µM: 3.4
- compound: "N[C@@H](Cc1c[nH]cn1)C(=O)N(CCc1c[nH]c2ccccc12)Cc1ccccc1"
  EC50 / µM: 5.2
- compound: "N[C@@H](Cc1c[nH]cn1)C(=O)Nc1cccc2cccnc12"
  EC50 / µM: 7

Proceed to the following item.
Looking up N[C@@H](Cc1c[nH]cn1)C(=O)N[C@@H](Cc1ccccc1)C(=O)NCCc1ccccc1 (H-His-Phe-NHPhenethyl) , I found its EC50 recorded as 5.4
